Recorded Anti-CD28 Fab signal in the presence of CD28 for the following binders
- target.desc: T1, anti-CD28 Fab (SEQ ID NOs: 202, 203)
- T1 construct: biotinylated and captured on neutravidin coated plates in the phage ELISA
- measurement.protocol: phage binding ELISA; Fab wells pre-incubated with CD28 antigen (competitor);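 note: clonal phage supernatants added to wells preincubated with CD28 antigen in blocking buffer versus blocking buffer alone, washed, bound phage read by HRP-conjugated anti-M13 antibody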
Please give the numeric answer without any surrounding text.

Known results for binders:
{"binder": "YCDGHMPEYLAKCL [Phage-338]", "observed.measurement": 0.07}
{"binder": "YCDGHLAEYMPKCL [Phage-320]", "observed.measurement": 0.07}
{"binder": "YCVGHAPEFMAKCL [Phage-369]", "observed.measurement": 0.1}
{"binder": "YCEGHLDEYMWKCL [Phage-381]", "observed.measurement": 0.06}

Noted for YCEGHRSEYMAKCL [Phage-336] : its Anti-CD28 Fab signal in the presence of CD28 reads 0.06

Noted for YCEGHSPEYMRKCL [Phage-385] : its Anti-CD28 Fab signal in the presence of CD28 reads 0.08

Noted for YCDGHTSEYITKCL [Phage-373] : its Anti-CD28 Fab signal in the presence of CD28 reads 0.07

Noted for YCAGHLQEYMQKCL [Phage-445] : its Anti-CD28 Fab signal in the presence of CD28 reads 0.07

Noted for YCEGHLQIYMSKCL [Phage-346] : its Anti-CD28 Fab signal in the presence of CD28 reads 0.14

Noted for YCEGHSQEYMQKCL [Phage-344] : its Anti-CD28 Fab signal in the presence of CD28 reads 0.05

Noted for YCVGHLQEYMEKCL [Phage-389] : its Anti-CD28 Fab signal in the presence of CD28 reads 0.06

Noted for YCAGHAPQYMEKCL [Phage-312] : its Anti-CD28 Fab signal in the presence of CD28 reads 0.08

Noted for YCEGHSPEYMWKCL [Phage-321] : its Anti-CD28 Fab signal in the presence of CD28 reads 0.09

Noted for YCEGHLPAYMQKCL [Phage-377] : its Anti-CD28 Fab signal in the presence of CD28 reads 0.07

Noted for YCAGHLPMYMAKCL [Phage-367] : its Anti-CD28 Fab signal in the presence of CD28 reads 0.08

Noted for YCAGHVPEYMAKCL [Phage-379] : its Anti-CD28 Fab signal in the presence of CD28 reads 0.07
